Data provenance: patent US9266869B2

- target-under-test: VEGFR2 (KDR) (Homo sapiens (Human))
- Sequence (P35968 786-1356): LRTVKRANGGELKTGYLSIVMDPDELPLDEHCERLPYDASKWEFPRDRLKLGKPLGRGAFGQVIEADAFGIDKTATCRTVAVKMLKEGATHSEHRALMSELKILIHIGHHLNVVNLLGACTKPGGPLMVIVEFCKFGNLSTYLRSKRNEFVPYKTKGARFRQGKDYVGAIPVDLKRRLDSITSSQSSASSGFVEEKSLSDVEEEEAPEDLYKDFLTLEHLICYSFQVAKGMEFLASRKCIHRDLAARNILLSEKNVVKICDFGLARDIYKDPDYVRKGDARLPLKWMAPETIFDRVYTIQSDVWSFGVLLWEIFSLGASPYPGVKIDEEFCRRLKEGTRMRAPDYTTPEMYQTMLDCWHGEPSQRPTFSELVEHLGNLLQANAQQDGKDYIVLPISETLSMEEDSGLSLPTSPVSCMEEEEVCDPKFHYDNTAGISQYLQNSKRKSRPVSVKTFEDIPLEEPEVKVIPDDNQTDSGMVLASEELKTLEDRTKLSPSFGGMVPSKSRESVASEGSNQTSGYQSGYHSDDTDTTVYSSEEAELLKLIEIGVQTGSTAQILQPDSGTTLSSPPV
- experimental-details: VEGFR2 Kinase Assay
- Type: biochemical
- condition-description: purified cytoplasmic domain KDR protein, 2.7 μM ATP; read-out: VEGFR2 Enzyme Assay (IC50 nM)
Exercise: state measured IC50 for each of the molecules provided.
Lab book: enter the figure in nM, no units written.

**Query** Name the recorded IC50 of the molecule listed here: COC(=O)CCCCS(C)(=O)=NC(=O)c1cnc(N)c(C#Cc2cccc(NC(=O)c3ccc(Cl)c(C(F)(F)F)c3)c2)c1 (stereo not shown)
**Result** 4

**Query** Give IC50 for Cn1ccnc1C(=O)Nc1cccc(C#Cc2cc(C(=O)N=S(C)(C)=O)cnc2N)c1
**Result** 6

**Query** Tell us which IC50 value is on record for COC(=O)CCCC[S@](C)(=O)=NC(=O)c1cnc(N)c(C#Cc2cccc(NC(=O)c3occc3C)c2)c1
**Result** 3

**Query** Dear colleague, please send me the reported IC50 for Cc1ccoc1C(=O)Nc1cccc(C#Cc2cc(C(=O)N=S3(=O)CCCC3)cnc2N)c1 when you can.
**Result** 2
